Value source: paper PMC9911399

Exercise: state measured binding signal for each of the binders provided.
Molecular target: T1, RBFOX1 RRM (Homo sapiens, UniProt Q9NWB1 109-208)
T1 sequence: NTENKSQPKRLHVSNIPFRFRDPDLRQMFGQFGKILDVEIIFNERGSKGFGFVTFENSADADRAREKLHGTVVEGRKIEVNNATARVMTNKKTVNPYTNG
Experiment: EMSA; HiTS-Eq, 1 nM pool, 10 min; buffer printed only for the single-RNA assays: 10 mM Tris pH 7.5, 150 mM NaCl, 3.4 mM EDTA, 0.001% NP-40, 30 C
Conditions: tags: His6 N-terminal (pET28a); label: 5' 32P
The full ranking holds about 16,000 sequences; the median of “ka relative to ugcaugu” is about 0.0091, and the highest 2% start at about 0.032. The sample holds the highest values, similar sequences and a random draw of the others, so the mix is not that of the screen.

[in] Param item = UGCUGGU (DNA:RNA) RNA: GGGAGACCGGAAUUCAGAUUGUCCUGCUGGUUUAAAUCCCGUCGUAGCCACCA DNA 1: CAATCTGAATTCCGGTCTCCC DNA 2: TGGTGGCTACGACGGGATT ; retrieve measured binding signal.
[out] 0.028 KA relative to UGCAUGU

[in] Param item = GAGAGUC (DNA:RNA) RNA: GGGAGACCGGAAUUCAGAUUGUCCGAGAGUCUUAAAUCCCGUCGUAGCCACCA DNA 1: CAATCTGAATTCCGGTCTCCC DNA 2: TGGTGGCTACGACGGGATT ; retrieve measured binding signal.
[out] 0.0183 KA relative to UGCAUGU

[in] Param item = UGUAGCC (DNA:RNA) RNA: GGGAGACCGGAAUUCAGAUUGUCCUGUAGCCUUAAAUCCCGUCGUAGCCACCA DNA 1: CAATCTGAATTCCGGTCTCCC DNA 2: TGGTGGCTACGACGGGATT ; retrieve measured binding signal.
[out] 0.0129 KA relative to UGCAUGU

[in] Param item = UGGUUCC (DNA:RNA) RNA: GGGAGACCGGAAUUCAGAUUGUCCUGGUUCCUUAAAUCCCGUCGUAGCCACCA DNA 1: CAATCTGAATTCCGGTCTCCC DNA 2: TGGTGGCTACGACGGGATT ; retrieve measured binding signal.
[out] 0.0214 KA relative to UGCAUGU
